System: TO-N3 (biotin conjugate)
protocol notes: pull-down binding Z-score (relative to library population); higher = stronger binding
condition set: RNA library: Library-2
Consider the following sequences and their measured pull-down binding Z-score readings.
observable: pull-down binding Z-score

>>> observed_value("UACUUUACUCAGAGUA [SHAPE_invitro_SARS-CoV-2_Motif_368]")
-1.58
>>> observed_value("UAGCUGUACCCUAUAAUAUGAGAGUUAUACAUUUUGGUGCUGGUUCUGAUAAAGGAGUUGCACCAGGUACAGCUG")
-0.515
>>> observed_value("GCCUGUGUAGACGGGGACCUGCCCUGCAUGGGCACCCCCUCACUGGC [hsa-mir-6762]")
0.173
>>> observed_value("GCAUUGAUUUAGAUGAGUGGAGUAUGGCUACAUACUACUUAUUUGAUGAGUCUGGUGAGUUUAAAUUGGCUUCACAUAUGU")
0.0261
>>> observed_value("CAGUGACAUGCGUUUAAC [hsa-mir-4485]")
0.394
>>> observed_value("CCAUUUCAUCUUUUAAAUGG")
-0.985
>>> observed_value("GGAGCUCUGUCCUGUCUCACUCAUUGCUCC [hsa-mir-6749]")
-0.473
>>> observed_value("CGAGUCUGAGCCUUUAAAAGCCACUCU [hsa-mir-1287]")
0.0262
>>> observed_value("AUGCCAACUAUUUUCUUUGCUGGCAU")
-1.36
>>> observed_value("GUGCAGAAUGAAUUCUCGUAACUACAUAGCACAAGUAGAUGUAGUUAACUUUAAUCUCAC")
-0.646

* * *

Test system: TO-N3 (biotin conjugate)
protocol notes: pull-down binding Z-score (relative to library population); higher = stronger binding
condition set: RNA library: Library-2
Consider the following sequences and their measured pull-down binding Z-score readings.
observable: pull-down binding Z-score

>>> observed_value("GCAUCCUUGGAAUCUGCACUCAAGGGAUGC [hsa-mir-5089]")
0.358
>>> observed_value("GGUUUCUUAAAAUGGAAUCU [hsa-mir-1255b-1]")
-0.413
>>> observed_value("AAGGCCAGGACCCGCUGACCCAU [hsa-mir-6872]")
0.411
>>> observed_value("CACACAUACAUAUAUAUAUGUUUG [hsa-mir-3149]")
0.379
>>> observed_value("AACAUUAACCUCCACACGCAAGUUGUGGACAUGUCAAUGACAUAUGGACAACAGUUUGGUCCAACUUAUUUGGAUGGAGCUGAUGUU")
-1.13
>>> observed_value("GAGGUCUUCCCAUGCUAAGAAGUCCUC [hsa-mir-2116]")
1.19
>>> observed_value("AGGUAGUGUUUAGUUAUCUACU [hsa-mir-20a]")
-0.285
>>> observed_value("GUUAACUGGUUAUAAGAAACCUGCUUCAAGAGAGCUUAAAGUUAC")
-0.0514
>>> observed_value("UAUGCAAAGCUCUGACAGUGUUUCACUUGCUA [hsa-mir-7848]")
-0.256
>>> observed_value("UUGUGAAACACAGGUGUUUUUUAACCUCAC [hsa-mir-6841]")
0.172
>>> observed_value("GUGUUUAUGAUUACUUAGUUUCUACACAGGAGUUUAGAUAUAUGAAUUCACAGGGACUACUCCCACCCAAGAAUAGCAUAGAUGC")
-0.0167
>>> observed_value("CAUGUGAUCUGCACCUCUGAAGACAUG")
0.248
>>> observed_value("UUAACCUAAAAUGAGAAGGCUAA [hsa-mir-633]")
-0.212
>>> observed_value("UGCUGAGGCUUCUAAGAAGCCUCGGCA")
-0.224
>>> observed_value("UGUGACUGGACA [SHAPE_invivo_SARS-CoV-2_Motif_313]")
0.774
>>> observed_value("GGUCAGAAUGAUC [IAV_invivo_NP_5_Motif_12+IAV_invivo_NP_5_Motif_12]")
-0.601
>>> observed_value("UUAUGUUUCUGAUCCGAAUAUAA [hsa-mir-208b]")
-0.483
>>> observed_value("CCUUAGCACUAGCAGGAGG [hsa-mir-612]")
-0.556
>>> observed_value("CUUGAUGAUUUUGUUGAAAUAAUAAAAUCCCAAG")
-0.636
>>> observed_value("UGGAGUUUUUUUUUCCUCCUG [hsa-mir-4329]")
0.219
>>> observed_value("UUUUGCUUGUGUCUCUCCGCUCUGAGCAAUC [hsa-mir-96]")
0.528
>>> observed_value("CCUGAAUCUUGG [IAV_invivo_PB1_2_Motif_21+IAV_invivo_PB1_2_Motif_21]")
-0.925
